Biological target: Human PI3K gamma (Homo sapiens)
Construct: His (N); host or cells: SF9 insect cells (baculovirus)
Sequence (P48736 whole entry): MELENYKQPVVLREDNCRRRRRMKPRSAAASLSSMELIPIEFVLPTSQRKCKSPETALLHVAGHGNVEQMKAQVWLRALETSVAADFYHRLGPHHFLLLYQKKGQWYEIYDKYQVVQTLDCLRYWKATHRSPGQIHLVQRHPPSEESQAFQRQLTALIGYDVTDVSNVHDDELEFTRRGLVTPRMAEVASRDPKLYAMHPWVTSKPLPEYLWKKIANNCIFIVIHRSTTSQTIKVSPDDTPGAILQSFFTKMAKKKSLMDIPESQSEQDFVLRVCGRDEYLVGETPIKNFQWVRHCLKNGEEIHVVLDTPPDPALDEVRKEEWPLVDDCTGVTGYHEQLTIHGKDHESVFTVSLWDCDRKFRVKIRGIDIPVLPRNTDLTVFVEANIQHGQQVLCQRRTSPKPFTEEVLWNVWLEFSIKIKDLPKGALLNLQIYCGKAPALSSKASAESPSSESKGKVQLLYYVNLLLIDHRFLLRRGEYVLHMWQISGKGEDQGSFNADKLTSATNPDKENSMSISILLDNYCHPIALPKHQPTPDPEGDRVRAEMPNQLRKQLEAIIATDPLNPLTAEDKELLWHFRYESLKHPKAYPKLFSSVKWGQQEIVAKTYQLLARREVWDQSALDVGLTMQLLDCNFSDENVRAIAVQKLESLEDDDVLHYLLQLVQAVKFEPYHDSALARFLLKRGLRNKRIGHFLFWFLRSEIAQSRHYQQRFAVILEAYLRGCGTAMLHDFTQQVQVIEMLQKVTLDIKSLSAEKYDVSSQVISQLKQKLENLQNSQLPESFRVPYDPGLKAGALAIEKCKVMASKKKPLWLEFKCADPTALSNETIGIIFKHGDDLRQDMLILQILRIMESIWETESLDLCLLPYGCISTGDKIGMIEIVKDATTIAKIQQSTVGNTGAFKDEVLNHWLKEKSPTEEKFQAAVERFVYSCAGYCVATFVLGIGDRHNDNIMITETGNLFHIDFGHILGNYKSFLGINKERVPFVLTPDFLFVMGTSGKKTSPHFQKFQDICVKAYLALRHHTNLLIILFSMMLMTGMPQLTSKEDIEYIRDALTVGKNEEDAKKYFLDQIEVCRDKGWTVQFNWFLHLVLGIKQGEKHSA
Assay: Human PI3K gamma enzyme assay (HTRF)
Assay type: biochemical
Settings: concentration not given; b1389 states 1.0 μM for PI3K δ and γ; read-out: p110 gamma Percent Inhibition
value.type: inhibition at 1 µM (%)

Past entries and their recorded results:
O=C(O)c1sc(N2CCOCC2)nc1Cc1cc2ccccc2cc1F :: 42
COc1ccc2ccc(Cc3nc(N4CCOCC4)sc3C(=O)O)cc2c1 :: 31

[P] N#Cc1c(-c2ccncc2)sc(-c2nnc[nH]2)c1Cc1ccc2ccccc2c1
[Q] CC(C)(C)[S+]([O-])NC(c1ccc(Cl)c(Cl)c1)c1c(C(=O)O)sc(N2CCOCC2)c1C#N (stereo not shown)
Request: Pick one: P or Q . Which one has the lower reported inhibition at 1 µM? Your answer should be the label attached to the chosen record.
Response: Q
(Q: 12%, P: 34%)
